For each entry below, report its drug sensitivity score value.
system: FMOC06 (patient-derived mucinous ovarian cancer cells); test: drug sensitivity score (DSS3, normalised partial AUC of % inhibition dose-response) (DSS (score)); higher = more sensitive (stronger inhibition of viability); extreme values may be limits of the assay; conditions: 72 h; library: FO5A; assay format: 2D, 384-well, CellTiter-Glo
Number only, please.

Noted drug sensitivity score for CO[C@H]1C[C@@H]2CC[C@@H](C)[C@@](O)(O2)C(=O)C(=O)N2CCCC[C@H]2C(=O)O[C@H]([C@H](C)C[C@@H]2CC[C@@H](O)[C@H](OC)C2)CC(=O)[C@H](C)/C=C(\C)[C@@H](O)[C@@H](OC)C(=O)[C@H](C)C[C@H](C)/C=C/C=C/C=C/1C , tested on FMOC06: 2.5

Noted drug sensitivity score for COc1cc(Br)c(Nc2nc(-c3c(C)nc4ncccn34)cs2)c(Br)c1 , tested on FMOC06: 3.5

Noted drug sensitivity score for Cc1ccc(-c2cc(C(F)(F)F)nn2-c2ccc(S(N)(=O)=O)cc2)cc1 , tested on FMOC06: 0

Noted drug sensitivity score for CNCc1ccc(-c2[nH]c3cc(F)cc4c3c2CCNC4=O)cc1 , tested on FMOC06: 0

Noted drug sensitivity score for CNC(=O)CN1CCC(Oc2cc3c(Nc4cccc(Cl)c4F)ncnc3cc2OC)CC1 , tested on FMOC06: 0.3

Noted drug sensitivity score for CCCCNc1ncc(C(=O)NCc2ccc(-n3ccnc3)cc2)c(NC2CCC(O)CC2)n1 (stereo not drawn) , tested on FMOC06: 0

Noted drug sensitivity score for CCc1cc2c(cc1N1CCC(N3CCOCC3)CC1)C(C)(C)c1[nH]c3cc(C#N)ccc3c1C2=O , tested on FMOC06: 0.2

Noted drug sensitivity score for O=c1ncn2nc(Sc3ccc(F)cc3F)ccc2c1-c1c(Cl)cccc1Cl , tested on FMOC06: 0.3
